Would you mind telling me the reported IC50 of each entry?
- Test system: 496974-208-R-J2-PDC complex spheroids, growth % test/control;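 also: spheroids exposed to the drugs for 7 days before readout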
- test-protocol: Anticancer human tumor 496974-208-R-J2-PDC patient-derived pancreatic carcinoma cell line growth inhibition [CLK]
- condition-summary: curve of first compound; second compound 1 µM

Example entries begin here.
[[record]]
molecule = "CC(CO)NC(=O)c1cc(-c2ccc(Cl)cc2)nn(-c2cnn(C)c2)c1=O (stereo not drawn) + CN1CCN(c2cc(C(=O)Nc3cc4cc(-c5cnn(C)c5)ccc4cn3)ccn2)CC1"
recorded_result = "< 0.0316 µM"

[[record]]
molecule = "COc1ccc([C@@H](O)c2cc(-c3ncnc4cc(N5CCOCC5)ccc34)c(F)cc2Cl)nn1 + CN1CCN(c2cc(C(=O)Nc3cc4cc(-c5cnn(C)c5)ccc4cn3)ccn2)CC1"
recorded_result = "< 0.0316 µM"


API: the following record is the query input.
[ask] Provide the documented IC50 with 496974-208-R-J2-PDC complex spheroids, growth % test/control as the system for C=C(F)C(=O)N1CCN(c2nc(OCC3CCCN3C)nc3c2CCN(c2cccc4cccc(Cl)c24)C3)CC1CC#N (stereo not drawn) + CN1CCN(c2cc(C(=O)Nc3cc4cc(-c5cnn(C)c5)ccc4cn3)ccn2)CC1
[reply] < 0.0316 µM

// data source = PubChem BioAssay AID2060615
